Tested on: Leishmania donovani LV9 intramacrophage amastigotes
Assay: In vitro anti-leishmanial testing on intramacrophage amastigotes (RAW 264.7, Sybr Green I)
Type: cell-based
Settings: CC50 RAW 264.7 / IC50 intramacrophage amastigotes
Value Type: SI = CC50/IC50 Intramacro. Amas.
Write the value as a bare number.

Study these solved cases before continuing.
compound="O=C(NN=Cc1nc2ccccc2s1)c1cccs1 [Compound 4]" value_type="SI = CC50/IC50 Intramacro. Amas." reported_measurement=1.4
compound="C[C@@H]1[C@H](O)[C@@H](C)/C=C/C=C/C=C/C=C/C=C/C=C/C=C/[C@H](O[C@@H]2O[C@H](C)[C@@H](O)[C@H](N)[C@@H]2O)C[C@@H]2O[C@](O)(C[C@@H](O)C[C@@H](O)[C@H](O)CC[C@@H](O)C[C@@H](O)CC(=O)O[C@H]1C)C[C@H](O)[C@H]2C(=O)O [AmB, Amphotericin B, reference compound]" value_type="SI = CC50/IC50 Intramacro. Amas." reported_measurement=48.7
compound="Cc1csc(C=NNC(=O)c2ccco2)n1 [Compound 1]" value_type="SI = CC50/IC50 Intramacro. Amas." reported_measurement=2.2

Please tell me: SI = CC50/IC50 Intramacro. Amas. of O=C(NN=Cc1ccc(Br)s1)c1cccs1 [Compound 2] , system Leishmania donovani LV9 intramacrophage amastigotes?
2.2
